Assay target: SNAP25 full length (FLAG and MYC tagged) (Homo sapiens, UniProt P60880 SEQ:12-217)
Sequence (P60880 whole entry): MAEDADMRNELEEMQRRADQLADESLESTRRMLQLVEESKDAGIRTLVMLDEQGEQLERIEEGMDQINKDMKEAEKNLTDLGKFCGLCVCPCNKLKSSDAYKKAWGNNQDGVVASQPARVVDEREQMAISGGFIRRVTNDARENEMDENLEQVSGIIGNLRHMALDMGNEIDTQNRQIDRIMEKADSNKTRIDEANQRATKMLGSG
Protocol: ELONA; full-length SNAP25
Experimental setup: tags: FLAG and MYC
Listed here are binders together with their documented binding signal.
Give your result in ELISA signal as a bare value.

Consider the reported binding signal for these binders:
Binder: PEP 4.10 (ssDNA, W indole, X amine, Y phenol modified dU [19,25,34,35,40,43,46]) DNA: TTTTTAAGCCCACAAGACTGTGCGTCGCACAGATTGGCATCGTCGTGCCATG
Unit info: ELISA signal
Measured value: 4
--
Binder: PEP 3.09 (ssDNA, W indole, X amine, Y phenol modified dU [14X,19Y,23W,27X]) DNA: TTTTTAAGCCCACTGCACTGTGTACATCGAACTGCACCAACGTGGGCCCATG
Unit info: ELISA signal
Measured value: 168
--
Binder: PEP 4.11 (ssDNA, W indole, X amine, Y phenol modified dU [19,20,23,43,46]) DNA: TTTTTAAGCCCACCCGAGTTCGTCCAGCGAACCACGCGCGTGTCGTGCCATG
Unit info: ELISA signal
Measured value: 0

Recorded binding signal (binder PEP 4.09 (ssDNA, W indole, X amine, Y phenol modified dU [15,17,19,20,35,43,46]) DNA: TTTTTAACACGACATATGTTCGACGGACACAGTGTGTGGCGGTCGTGCCATG ): 0
